Data credit: patent US20090252788A1

The entries below come with measured Diff. Volume % values attached.
# protocolDescription: Particle size distribution and specific surface area (LS 200, Small Volume Module, Fraunhofer optical model)
# Type: physicochemical
# experimentalContext: Particle Diameter (Lower) 101.1 μm

[
  {
    "compound": "O=C(O)CCNC(=O)c1ccc(/N=N/c2ccc(O)c(C(=O)O)c2)cc1 [Feed Powder Sample A (#35.$01)]",
    "Diff. Volume %": "0%"
  },
  {
    "compound": "O=C(O)CCNC(=O)c1ccc(/N=N/c2ccc(O)c(C(=O)O)c2)cc1 [Feed Powder Sample C (#53.$02)]",
    "Diff. Volume %": "0%"
  },
  {
    "compound": "O=C([O-])CCNC(=O)c1ccc(/N=N/c2ccc(O)c(C(=O)[O-])c2)cc1.[Na+].[Na+] [Sample 2]",
    "Diff. Volume %": "0%"
  },
  {
    "compound": "O=C([O-])CCNC(=O)c1ccc(/N=N/c2ccc(O)c(C(=O)[O-])c2)cc1.[Na+].[Na+] [Sample 3]",
    "Diff. Volume %": "0%"
  },
  {
    "compound": "O=C([O-])CCNC(=O)c1ccc(/N=N/c2ccc(O)c(C(=O)[O-])c2)cc1.[Na+].[Na+] [Sample 1]",
    "Diff. Volume %": "0%"
  },
  {
    "compound": "O=C(O)CCNC(=O)c1ccc(/N=N/c2ccc(O)c(C(=O)O)c2)cc1 [Feed Powder Sample B (#41.$02)]",
    "Diff. Volume %": "2.65%"
  },
  {
    "compound": "O=C([O-])CCNC(=O)c1ccc(/N=N/c2ccc(O)c(C(=O)[O-])c2)cc1.[Na+].[Na+] [Sample 4]",
    "Diff. Volume %": "1.08%"
  }
]
